# Tested on: SF-268 CNS
# Assay procedure: NCI-60 one-dose screen, 48 h (100 = growth as untreated, 0 = no growth, -100 = all killed)
# Study conditions: 10 µM unless noted
About 83,000 compounds went through this panel and 20% of them were active in at least one assay; those are over-represented in the sample as a whole.
For each record, write down the corresponding growth.
Answer with a number only, understood to be in %.

Query: Lab note: need growth for COc1ccc(Cc2nc(C#N)c(N3CCN(c4ccc(F)cc4)CC3)o2)cc1 on SF-268 CNS, anyone have it?
Response: 90.5

Query: Lab note: need growth for COc1ccc2oc(=O)cc(-c3nc4ccc(N)cc4[nH]3)c2c1 on SF-268 CNS, anyone have it?
Response: 87.5

Query: Lab note: need growth for C#C[C@@]1(O)[C@@H](CO)O[C@@H](n2cc(-c3ccco3)c3c(N)ncnc32)[C@@H]1O on SF-268 CNS, anyone have it?
Response: 83

Query: Lab note: need growth for CSc1nc(-c2ccco2)c2c(N)[nH]nc2n1 on SF-268 CNS, anyone have it?
Response: 104

Query: Lab note: need growth for O=C(/C(=C/c1ccc([N+](=O)[O-])cc1)SCc1ccccc1)c1ccc(Cl)cc1 on SF-268 CNS, anyone have it?
Response: 86.5
